Just for reference, PubChem BioAssay is where these values come from.

Test: yeast AGP1-GFP fluorescence change, single-dose – cell-based, flow cytometry, S. cerevisiae, cherry picks, confirmation (AID 2273);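 note: median GFP channel fluorescence over the whole cell population gate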
Conditions: S. cerevisiae AGP1-GFP strain, 3 h, at 10 µM
readout_name: GFP response, % of DMSO (%)
Lab book: enter the figure in %, no units written.

Sample answers from the record:
{"compound": "O=C(NC1CCCCC1)N1CCc2[nH]c3ccccc3c2C1", "GFP response, % of DMSO (%)": 96}
{"compound": "C[C@]12C[C@H](O)[C@H]3[C@@H](CCC4=CC(=O)CC[C@@]43C)[C@@H]1CC[C@@H]2C(=O)CO", "GFP response, % of DMSO (%)": 96.4}
{"compound": "O=C(O)CCNC(=O)c1ccccc1", "GFP response, % of DMSO (%)": 104}
{"compound": "C#C[C@]1(O)CC[C@H]2[C@@H]3CCC4=CC(=O)CC[C@@H]4[C@H]3CC[C@@]21CC", "GFP response, % of DMSO (%)": 95.7}
{"compound": "CN(C)CCN(Cc1ccccc1)c1ccccn1", "GFP response, % of DMSO (%)": 103}

Reported GFP response, % of DMSO ( `O=c1cnn([C@@H]2O[C@H](CO)[C@@H](O)[C@H]2O)c(=O)[nH]1` ) = 89.9

Reported GFP response, % of DMSO ( `C[n+]1ccccc1/C=N/O` ) = 98

Reported GFP response, % of DMSO ( `C[C@H]1C[C@@H]2[C@H]([C@@H](O)C[C@@]3(C)[C@H]2CC[C@]3(O)C(=O)CO)[C@@]2(C)C=CC(=O)C=C12` ) = 96

Reported GFP response, % of DMSO ( `CCCCN(CCCC)CCCOC(=O)c1ccc(N)cc1` ) = 94.5

Reported GFP response, % of DMSO ( `CC(=O)[C@@]1(O)CC[C@H]2[C@@H]3CCC4=CC(=O)CC[C@]4(C)[C@H]3[C@@H](O)C[C@@]21C` ) = 103

====

Assay: TOR pathway GLN3 branch reporter MEP2-GFP changes – S. cerevisiae, multiplex flow cytometry, primary screen (AID 1867);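 note: median GFP channel fluorescence of barcode-gated MEP2-GFP cells measured by flow cytometry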
Conditions: S. cerevisiae MEP2-GFP strain, 3 h, at 10 µM, active compounds read high, 100% means same as DMSO wells
Results filed as inconclusive are left out.
readout_name: GFP response vs DMSO (%)
Lab book: enter the figure in %, no units written.

Sample answers from the record:
{"compound": "C#CCN1C(=O)C(O)(c2c(C)[nH]c3ccccc23)c2ccccc21 (stereo unspecified)", "GFP response vs DMSO, %": 106}
{"compound": "COc1ccc(C(CC(=O)N2CCOCC2)C(C)C)cc1 (stereo unspecified)", "GFP response vs DMSO, %": 99.6}
{"compound": "CC(C)NS(=O)(=O)c1ccc(OCC(=O)Nc2cccc(F)c2)cc1", "GFP response vs DMSO, %": 98.7}
{"compound": "O=c1cc(CN2CCN(c3cccc(Cl)c3)CC2)c2cc(O)c(-c3ccccc3)cc2o1", "GFP response vs DMSO, %": 133}

Reported GFP response vs DMSO ( OC(C#CCN1CCCC1)(c1ccccc1)c1cccnc1 (stereo unspecified) ) = 101

Reported GFP response vs DMSO ( `COc1ccc2oc(=O)c(C(=O)Nc3ccccc3-c3ccccc3)cc2c1` ) = 104
